The following molecules are shown together with reported IC50 values.
target: translocase I (Escherichia coli, UniProt P0A6W3); assay: IC50 against translocase I; type: biochemical
Sequence (P0A6W3 whole entry): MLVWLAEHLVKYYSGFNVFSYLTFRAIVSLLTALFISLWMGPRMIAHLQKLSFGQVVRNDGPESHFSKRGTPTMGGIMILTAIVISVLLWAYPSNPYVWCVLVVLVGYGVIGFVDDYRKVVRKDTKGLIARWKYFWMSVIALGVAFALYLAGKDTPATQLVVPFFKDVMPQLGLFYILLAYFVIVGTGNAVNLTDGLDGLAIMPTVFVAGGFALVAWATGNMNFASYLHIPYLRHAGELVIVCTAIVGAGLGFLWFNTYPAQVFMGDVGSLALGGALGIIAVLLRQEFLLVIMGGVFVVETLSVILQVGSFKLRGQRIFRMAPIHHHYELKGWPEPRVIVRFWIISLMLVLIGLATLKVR
State just the number; it will be interpreted in nM.

>  <smiles.text>
CO[C@H]1[C@@H](O)[C@H](n2ccc(=O)[nH]c2=O)O[C@@H]1[C@@H](O[C@H]1OC(C(=O)Nc2ccc(OC(F)(F)F)cc2)=C[C@H](O)[C@@H]1O)C(N)=O

>  <value.units>
nM

>  <measurement>
24.3

$$$$
>  <smiles.text>
CO[C@H]1[C@@H](O)[C@H](n2ccc(=O)[nH]c2=O)O[C@@H]1[C@@H](O[C@H]1OC(C(=O)Nc2ccc([N+](=O)[O-])cc2)=C[C@H](O)[C@@H]1O)C(N)=O

>  <value.units>
nM

>  <measurement>
6.9

$$$$
>  <smiles.text>
CO[C@H]1[C@@H](O)[C@H](n2ccc(=O)[nH]c2=O)O[C@@H]1[C@@H](O[C@H]1OC(C(=O)Nc2ccc(F)c(C(F)(F)F)c2)=C[C@H](O)[C@@H]1O)C(N)=O

>  <value.units>
nM

>  <measurement>
12.9

$$$$
>  <smiles.text>
CO[C@H]1[C@@H](O)[C@H](n2ccc(=O)[nH]c2=O)O[C@@H]1[C@@H](O[C@H]1OC(C(=O)Nc2ccc(F)c(F)c2F)=C[C@H](O)[C@@H]1O)C(N)=O

>  <value.units>
nM

>  <measurement>
17

$$$$

Now for another entry.
Please fill in: IC50 reported for CO[C@H]1[C@@H](O)[C@H](n2ccc(=O)[nH]c2=O)O[C@@H]1[C@@H](O[C@H]1OC(C(=O)Nc2ccc(Br)c(C)c2)=C[C@H](O)[C@@H]1O)C(N)=O = 12.4

----------
tested on: MAC; assay: Synergy by checkerboard titration (microdilution); format: cell-based, M. avium complex; details: Mycobacterium avium, MAC A5; drug alone
Here the recorded MIC is given for each entry.
Write the value in µg/mL as a bare number.

As a guide, the following entries are already answered.
>  <compound>
NCC[C@H](O)C(=O)N[C@@H]1C[C@H](N)[C@@H](O[C@H]2O[C@H](CN)[C@@H](O)[C@H](O)[C@H]2O)[C@H](O)[C@H]1O[C@H]1O[C@H](CO)[C@@H](O)[C@H](N)[C@H]1O [AMK, amikacin, reference compound]

>  <system.name>
MAC

>  <value.units>
µg/mL

>  <measurement>
2

$$$$
>  <compound>
CCCCCCCCCC(=O)O[C@@H]1[C@H](OC)[C@@H]([C@@H](O[C@H]2OC(C(=O)N[C@H]3CCC[C@@H](C)NC3=O)=C[C@H](O)[C@@H]2O)C(N)=O)O[C@H]1n1ccc(=O)[nH]c1=O

>  <system.name>
MAC

>  <value.units>
µg/mL

>  <measurement>
0.25

$$$$
>  <compound>
CC[C@H]1OC(=O)[C@H](C)[C@@H](O[C@H]2C[C@@](C)(OC)[C@@H](O)[C@H](C)O2)[C@H](C)[C@@H](O[C@@H]2O[C@H](C)C[C@H](N(C)C)[C@H]2O)[C@](C)(OC)C[C@@H](C)C(=O)[C@H](C)[C@@H](O)[C@]1(C)O [CLA, clarithromycin, reference compound]

>  <system.name>
MAC

>  <value.units>
µg/mL

>  <measurement>
0.125

$$$$

Kindly review the next compound as well.
Reported MAC MIC for item CC[C@@H](CO)NCCN[C@@H](CC)CO [EMB, ethambutol, reference compound] was 1
